The binders listed here are annotated with their fBb/B ratio.
SYSTEM NAME: T1, purified human Factor Bb (human, UniProt P00751 260-764)
T1 construct: Bought purified protein (Complement Technologies); also called fBb; complement factor Bb
T1 sequence (P00751 260-764 limits assumed): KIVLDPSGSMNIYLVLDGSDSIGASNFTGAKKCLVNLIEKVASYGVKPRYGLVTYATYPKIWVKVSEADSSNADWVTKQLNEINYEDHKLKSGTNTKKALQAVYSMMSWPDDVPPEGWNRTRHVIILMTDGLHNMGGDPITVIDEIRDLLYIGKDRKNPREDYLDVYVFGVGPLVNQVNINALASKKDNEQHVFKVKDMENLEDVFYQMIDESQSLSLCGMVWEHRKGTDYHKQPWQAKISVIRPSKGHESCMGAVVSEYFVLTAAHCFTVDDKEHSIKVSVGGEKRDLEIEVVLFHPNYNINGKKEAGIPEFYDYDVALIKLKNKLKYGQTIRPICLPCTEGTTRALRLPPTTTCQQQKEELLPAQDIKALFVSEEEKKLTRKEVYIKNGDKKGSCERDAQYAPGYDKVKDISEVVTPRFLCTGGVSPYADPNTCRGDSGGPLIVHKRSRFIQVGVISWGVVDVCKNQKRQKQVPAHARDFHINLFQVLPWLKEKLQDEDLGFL
ASSAY SUMMARY: antigen-capture ELISA, ratio of absorbance with biotinylated Factor Bb to that with Factor B
RESULT TYPE: fBb/B ratio

INSERT INTO assay_data (binder, bound_sign, endpoint_result) VALUES
  ('anti-factor Bb monoclonal antibody M10 (antibody, V domains shown, Mouse monoclonal purified from hybridoma supernatant) VH: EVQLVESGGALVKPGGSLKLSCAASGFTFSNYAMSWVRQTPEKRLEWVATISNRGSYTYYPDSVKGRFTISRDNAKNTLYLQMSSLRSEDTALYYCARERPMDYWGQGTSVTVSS VL: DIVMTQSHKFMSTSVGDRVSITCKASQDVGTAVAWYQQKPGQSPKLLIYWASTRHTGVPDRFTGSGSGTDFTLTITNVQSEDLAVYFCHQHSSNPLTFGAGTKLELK', '=', 5.5),
  ('anti-factor Bb monoclonal antibody M12 (antibody, V domains shown, Mouse monoclonal purified from hybridoma supernatant) VH: EVQLQQSGPELVKPGASVKMSCKASGYSFTDYLMNWVKQSHGKSLEWIGRINPYNGDAFYNQRFKGKATLTVDKSSSTAHMELRSLTSEDSALYYCARLENDYGFTYWGQGTLVTVSA VL: DIVMTQAAFSNPVTLGTSASISCSSSKSLLHSNGITYLYWYLQRPGQSPQLLIYRMSNLASGVPDRFSGSGSGTDFTLRISRVEAEDVGVYYCAQMLERPWTFGGGTKLEIK', '≥', 1),
  ('anti-factor Bb monoclonal antibody M18 (antibody, V domains shown, Mouse monoclonal purified from hybridoma supernatant) VH: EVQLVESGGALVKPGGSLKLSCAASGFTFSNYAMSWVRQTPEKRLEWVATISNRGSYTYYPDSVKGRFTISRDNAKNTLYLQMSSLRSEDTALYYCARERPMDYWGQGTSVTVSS VL: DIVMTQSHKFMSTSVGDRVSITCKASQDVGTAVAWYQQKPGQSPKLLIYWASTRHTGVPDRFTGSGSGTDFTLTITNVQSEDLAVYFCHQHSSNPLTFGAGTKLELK', '=', 8.4),
  ('anti-factor Bb monoclonal antibody M4 (antibody, V domains shown, Mouse monoclonal purified from hybridoma supernatant; also called Factor B/Bb antibody M4) VH: EVQLQQSGPELVKPGASVKMSCKASGYSFTDYLMNWVKQSHGKSLEWIGRINPYNGDAFYNQRFKGKATLTVDKSSSTAHMELRSLTSEDSALYYCARLENDYGFTYWGQGTLVTVSA VL: DIVMTQAAFSNPVTLGTSASISCSSSKSLLHSNGITYLYWYLQRPGQSPQLLIYRMSNLASGVPDRFSGSGSGTDFTLRISRVEAEDVGVYYCAQMLERPWTFGGGTKLEIK', '≥', 1);
